Measured growth, listed per entry.
# Tested on: OVCAR-5 ovarian
# MEASUREMENT PROTOCOL: NCI-60 one-dose screen, 48 h (100 = growth as untreated, 0 = no growth, -100 = all killed)
# COND: 10 µM
The panel holds about 83,000 compounds, 20% with a hit somewhere; the sample as a whole holds those more often.
Answer format: numeric, % implied, no suffix.

Here are 2 molecules together with their reported answers.
• CC(=O)OCCO = 102
• O=C1Cc2ccccc2C(=O)O1 = 106

Asked: Given the entry COCCOCCCl , report its measured growth.
Given back: 106

Asked: Thanks! And CN(C)Cc1cc(C(C)(C)CC(C)(C)C)ccc1O ?
Given back: 98.5

Asked: Thanks! And CC(C)OC(=O)c1cc(NC(=S)OC(C)C)ccc1Cl ?
Given back: 67.2

Asked: Thanks! And CC(C)CCCC(=O)O ?
Given back: 100

Asked: Thanks! And CCO/C=C1\SC(=S)N(c2cccc(C)c2)C1=O ?
Given back: 106

Asked: Thanks! And Cc1ccccc1C1N=C2Oc3ccccc3C=C2C(=O)N1 (stereo unspecified) ?
Given back: 17.3

Asked: Thanks! And Clc1ccc(-c2n[nH]c3c2Cc2ccccc2-3)cc1Cl ?
Given back: 111

Asked: Thanks! And COC(=O)/C=C/C(=O)NC(N)=O ?
Given back: 98.3

Asked: Thanks! And CCCNC(=O)c1ccc(S(N)(=O)=O)cc1 ?
Given back: 89.7

Asked: Thanks! And Nc1ccccc1SC(CC(=O)c1ccccc1)c1c(Cl)cccc1Cl (stereo unspecified) ?
Given back: 89.6

Asked: Thanks! And c1c(-c2cc(C3CC3)[nH]n2)n[nH]c1C1CC1 ?
Given back: 93.6

Asked: Thanks! And c1ccc(Cc2ccccc2)cc1 ?
Given back: 99.3

Asked: Thanks! And Oc1ccc(Cc2ccccc2)c2cccnc12 ?
Given back: 37.2

Asked: Thanks! And COc1cc(C2NC(=O)C(C#N)=C(Nc3cccc(C)c3)S2)ccc1O (stereo unspecified) ?
Given back: 111
